tested on: K. pneumoniae DT; assay: Minimum Inhibitory Concentration, agar dilution, K. pneumoniae DT; type: cell-based; details: Klebsiella pneumoniae; K. pneumoniae DT; agar dilution; read-out: Minimum Inhibitory Concentration
Outcome measure: MIC (µg/mL)
Give just the numeric value; µg/mL need not be written.

Form: Entry = N=c1scc(CC(=O)NC2C(=O)N3C(C(=O)O)=C(CSc4nnc(C(F)(F)F)s4)CSC23)n1O (stereo not drawn) | System = K. pneumoniae DT | MIC = ____
0.39

Please do the same for N=c1scc(CC(=O)NC2C(=O)N3C(C(=O)O)=C(CSc4c[nH]nn4)CSC23)n1O (stereo not drawn) as well.
0.1

Please do the same for N=c1scc(CC(=O)NC2C(=O)N3C(C(=O)[O-])=C(C[n+]4ccc(C(N)=O)cc4)CSC23)n1O (stereo not drawn) as well.
0.78
